# target or system: OleP (CYP107D1) (Streptomyces antibioticus)
# Sequence (Q59819 1-407): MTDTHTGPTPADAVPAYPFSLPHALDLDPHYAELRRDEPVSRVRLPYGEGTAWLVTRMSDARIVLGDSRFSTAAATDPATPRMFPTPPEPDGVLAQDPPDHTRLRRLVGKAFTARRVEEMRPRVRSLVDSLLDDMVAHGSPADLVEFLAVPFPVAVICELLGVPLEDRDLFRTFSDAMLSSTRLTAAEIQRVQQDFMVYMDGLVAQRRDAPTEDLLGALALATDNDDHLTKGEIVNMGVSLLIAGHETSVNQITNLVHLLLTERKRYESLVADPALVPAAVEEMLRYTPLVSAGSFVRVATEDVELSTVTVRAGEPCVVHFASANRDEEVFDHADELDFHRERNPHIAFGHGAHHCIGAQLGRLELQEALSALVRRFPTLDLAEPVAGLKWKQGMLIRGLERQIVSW
parameter: Kd

- CC[C@H]1OC(=O)[C@H](C)[C@@H](O)[C@H](C)[C@@H](O)[C@@H](C)C[C@@H](C)C(=O)[C@H](C)[C@@H](O)[C@H]1C [6DEB]: 3.83 µM

Data origin: paper PMC9867029
